# Test system: SN12C renal
# procedure details: NCI tumour cell line growth inhibition, 48 h; in the data active = GI50 below about 0.43 µM; inactive = the rest
Outcomes you can answer with include only these: Y (active), N (inactive)

compound: Clc1cccc(Cc2cn3cc(-c4ccccc4)nc3s2)c1
subject of test: SN12C renal
category label: N
--
compound: COC(C(=O)[C@@H](O)[C@@H](C)O)[C@@H]1Cc2cc3cc(O[C@H]4C[C@@H](O[C@H]5C[C@@H](O)[C@H](O)C(C)O5)[C@H](O)C(C)O4)c(C)c(O)c3c(O)c2C(=O)[C@H]1O[C@H]1C[C@@H](O[C@H]2C[C@@H](O[C@H]3C[C@@H](O)[C@@H](O)C(C)O3)[C@@H](O)C(C)O2)[C@H](O)C(C)O1 (stereo not given in full)
subject of test: SN12C renal
category label: Y
--
compound: Cn1cc(-c2nc(-c3cn(C)c4ncccc34)cs2)c2cc(F)ccc21
subject of test: SN12C renal
category label: N
--
compound: CCC1=C[C@H]2CN(CCc3c([nH]c4ccccc34)[C@@](C(=O)OC)(c3cc4c(cc3OC)N(C)[C@H]3[C@@](O)(C(=O)OC)[C@H](OC(C)=O)[C@]5(CC)[C@@H]6C[C@@H]6CN6CC[C@]43[C@@H]65)C2)C1
subject of test: SN12C renal
category label: Y
--
compound: C#Cc1ccc(-n2c(/C=C/c3ccc4ccccc4n3)nc3ncccc3c2=O)cc1
subject of test: SN12C renal
category label: N
--
compound: Cn1cc(C2=C(c3cccc(NCC(O)CO)c3)C(=O)NC2=O)c2cc(Cl)ccc21 (stereo not given)
subject of test: SN12C renal
category label: N

// outcome(item) with item = O=C(Nc1cccc2ccccc12)c1cc2ccccc2cc1O
N

Do the same for CC(=O)/C=C/c1ccc(N(C)Cc2ccc(C(C)(C)C)cc2)cc1 please
N

Do the same for Cc1ccc(S(=O)(=O)N2C/C(=C\c3cc(F)cc(F)c3)C(=O)/C(=C/c3cc(F)cc(F)c3)C2)cc1 please
Y

Do the same for CCNCCNc1cc(C2CCCC2)c(C#N)c2nc3ccccc3n12 please
N

----------
# Tested on: UACC-62 melanoma
# procedure details: NCI tumour cell line growth inhibition, 48 h; in the data active = GI50 below about 0.43 µM; inactive = the rest
Where a SMILES comes first, the peptide text is derived from it.
Outcomes you can answer with include only these: yes = active, no = inactive

Study these solved cases before continuing.
compound: COc1ccc(-c2oncc2-c2cc(OC)c3c(c2)OCO3)cc1
category label: no

compound: CSc1ccc2c(c1)C(=O)c1c-2n(CCCN=[N+]=[N-])c(=O)c2cc([N+](=O)[O-])ccc12
category label: no

compound: COc1ccc(/C=C2\CCCC3=C2N=C2SC=NN2C3c2ccc(OC)c(OC)c2)cc1OC (centres undefined)
category label: no

compound: CC(=O)NC(C(=O)N1CCCC1C(=O)O)C(C)C (stereo not drawn) (Ac-Val-Pro-OH; configuration not given here)
category label: no

// outcome(item) with item = O=C1[C@H](c2ccccc2)C2c3ccccc3CCN12 (some centres undefined)
no

Do the same for Cc1ccc(S(=O)(=O)N2C/C(=C\c3cc(F)cc(F)c3)C(=O)/C(=C/c3cc(F)cc(F)c3)C2)cc1 please
yes

Do the same for COc1ccc2cc(C(=O)/C=C/c3ccccc3OC)ccc2c1 please
no

Do the same for CCN1CCN(Cc2ccc3cc(C(=O)Nc4cc(NC(=O)c5ccc6c(c5)OCCO6)ccc4F)ccc3n2)CC1 please
yes

Do the same for COc1cc2c3c(n(CCCN4CCOCC4)c(=O)c2cc1OC)-c1cc2c(cc1C3=O)OCO2 please
yes

Do the same for O=C1C=CC(=O)N1CCCCCCCCCCN1C(=O)C=CC1=O please
no
